System: ISC-enriched organoids
assayExplanation: Secondary (validation) screen, 384-well 2.5-D, ENR+CD 6 days, n=8 wells, vs ENR+CD+DMSO control: carbachol-induced lysozyme secretion (LYZ.S)
Type: cell-based, murine
testParameters: Dose 0.02 uM
quantityMeasured: repSSMD.LYZ.S
Enter a number only.

{"columns": ["compound", "measurementTarget", "repSSMD.LYZ.S"],
 "data": [
  ["NC1(Cc2ccc(Cl)cc2)CCN(c2ncnc3[nH]ccc23)CC1 [CCT128930, reference compound]", "ISC-enriched organoids", "−3.825"],
  ["COc1cc(Nc2c(C#N)cnc3cc(OCCCN4CCN(C)CC4)c(OC)cc23)c(Cl)cc1Cl [Bosutinib (SKI-606), Bosutinib]", "ISC-enriched organoids", 1.147],
  ["CC(C)(C)NC(=O)[C@H]1CC[C@H]2[C@@H]3CC[C@H]4NC(=O)C=C[C@]4(C)[C@H]3CC[C@]12C [Finasteride]", "ISC-enriched organoids", "−0.197"]
]}

As a next step, examine the compound that follows.
Name the reported repSSMD.LYZ.S value associated with the compound CCOc1ccc(Cc2cc([C@@H]3O[C@H](CO)[C@@H](O)[C@H](O)[C@H]3O)ccc2Cl)cc1
−0.225

###

System: ISC-enriched organoids
assayExplanation: Primary screen, 384-well 2.5-D organoid differentiation (ENR+CD, 6 days): basal lysozyme secretion (LYZ.NS)
Format: cell-based, murine
testParameters: strictly standardized mean difference; primary screen; 4th of the 4 dose lines of the treatment (dose not given)
Measured SSMD.LYZ.NS values are reported for all entries that follow.
Enter a number only.

{"columns": ["molecule", "SSMD.LYZ.NS"],
 "data": [
  ["O=C(/C=C\\n1cnc(-c2cc(C(F)(F)F)cc(C(F)(F)F)c2)n1)NNc1cnccn1", "−1.714"],
  ["Cl.Cl.NC1(c2ccc(-c3nc4ccn5c(=O)[nH]nc5c4cc3-c3ccccc3)cc2)CCC1 [MK-2206 2HCl]", "−1.642"],
  ["Cc1cccc(-c2nn3c(c2-c2ccnc4ccc(C(N)=O)cc24)CCC3)n1", 1.243]
]}

Name the reported SSMD.LYZ.NS value associated with the molecule Clc1ccc(N/N=C(\c2ccccc2)c2ccccn2)nc1
−0.845

# iterate: Cc1cnc(NC(=O)Nc2cc(Br)c(C)cc2OC[C@@H]2CNCCO2)cn1
−1.826

# iterate: CC(C)CCNC(=O)[C@H](CC(C)C)NC(=O)[C@H]1O[C@@H]1C(=O)O [Loxistatin Acid (E-64C)]
0.027

# iterate: O=[N+]([O-])C=Cc1ccc2c(c1)OCO2
−0.670

# iterate: O=C1[C@H](Cc2ccc(O)cc2)N2C(=O)CCN(C(=O)NCc3ccccc3)[C@H]2CN1Cc1cccc2ccccc12
−1.162

###

Test system: ISC-enriched organoids
assayExplanation: Primary screen, 384-well 2.5-D organoid differentiation (ENR+CD, 6 days, Target Selective Inhibitor Library, vs whole-plate median): ATP (CellTiter-Glo 3D, CTG)
testParameters: strictly standardized mean difference; primary screen; 1st of the 4 dose lines of the treatment (dose not given)
We use -0.07 as the dividing line for SSMD.CTG: on or above the line is Satisfied, below is Not satisfied.

Worked examples follow.
{"columns": ["compound", "classLabel"],
 "data": [
  ["C#Cc1cccc(Nc2ncnc3cc4c(cc23)OCCOCCOCCO4)c1", "Satisfied"],
  ["O=C(/C=C\\n1cnc(-c2cc(C(F)(F)F)cc(C(F)(F)F)c2)n1)N1CC(F)(F)C1", "Satisfied"],
  ["CCOC(=O)N1CCC(=C2c3ccc(Cl)cc3CCc3cccnc32)CC1", "Not satisfied"],
  ["Nc1cccc2c1CN(C1CCC(=O)NC1=O)C2=O (centres unmarked) [Lenalidomide (CC-5013)]", "Satisfied"]
]}

Okay, next one:
Has Nc1nc(CC(=O)Nc2ccc(CCNC[C@H](O)c3ccccc3)cc2)cs1 a recorded SSMD.CTG greater than or equal to -0.07?
Satisfied
